B1: NFE2L1 (parent)
chain: TLDGYGIHPKSIDLDNYFTARRLL

Variants of: B1
procedure-text: protein stability index of a GFP-peptide fusion (GPS, HEK-293T) (PSI 1-6); higher = more stable;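 also: lentivirally expressed fusions sorted by FACS into six bins by GFP to DsRed ratio, PSI derived from sequencing read proportions per bin multiplied by bin number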
test-context: c terminus: a fixed tail appended
We begin with a simple list: items and their reported protein stability index.

mutant-name | protein stability index
H8W | 1.66
A20L | 1.53
R22K | 2.2
T19V | 1.66
S11Y | 1.67
R21A | 1.67
L14H | 2.01
L23C | 2.41
G4F | 1.46
R21P | 2.05
D3M | 2.07
D13L | 1.73
L2T | 2.23
Y17N | 2.59
Y17P | 3.23
K10C | 2.54
D3F | 3.12
L24V | 2.08
P9W | 2.16
H8S | 1.81
L24K | 2.9
T1Q | 1.99
S11C | 1.98
A20H | 1.66
A20C | 1.6
L14P | 2.31
N16R | 1.82
L23M | 2.03
R21M | 1.86
T19R | 2.81
G4T | 1.55
D3E | 2.14
R22W | 2.21
R21E | 2.12
R21K | 1.96
H8I | 1.98
Y5T | 2.13
L2V | 1.74
R21H | 2.8
L24D | 2.69
L23E | 2.6
D13G | 2.25
D13R | 1.91
H8A | 2.22
D3V | 1.62
L2A | 1.58
T19Q | 1.77
D15G | 2.3
D3K | 2.34
F18Y | 1.99
D13K | 1.72
D13Q | 2.01
K10M | 1.88
F18H | 2.34
L24F | 2.42
P9S | 1.71
G6E | 2.02
I7L | 1.7
G4A | 1.73
Y17A | 1.88
T1M | 1.77
A20K | 2.34
A20S | 2.03
H8N | 1.78
K10D | 2.37
S11L | 2
D3Y | 2.25
G6A | 2.26
I12K | 1.85
D3C | 1.77
K10T | 1.94
D13M | 1.64
D15I | 2.47
L23Y | 2.33
L14C | 2.39
G4E | 1.47
R22A | 1.49
Y5C | 2.01
I7E | 2.27
D15S | 2.44
A20W | 2.04
Y17Q | 2.92
L23S | 3.05
T1R | 1.66
D15Q | 1.84
